Hello, the source for this data is ChEMBL document CHEMBL3507680, in case you need it.

A collection of compounds and their measured cytotoxicity at 70.5 h
Measurement notes: Human HepG2 cell viability assay in 384 well format
Format: toxicity, cell-based
Parameters: dose 125 nL, time 70.5 hour; concentration not given beside the values
Condition summary: HepG2 cells, read-out: Inhibition

[
  {
    "Compound": "CC(C)CNC(=O)N1CCOC2(CCNCC2)C1",
    "cytotoxicity at 70.5 h (%)": -3.81
  },
  {
    "Compound": "Cc1ccccc1S(=O)(=O)N(C)[C@@H]1CC[C@@H](n2ccnc2C)[C@@H]1O",
    "cytotoxicity at 70.5 h (%)": 53.4
  },
  {
    "Compound": "CCn1cc(CN(C)S(=O)(=O)c2ccc(C)c(C)c2)cn1",
    "cytotoxicity at 70.5 h (%)": 0.0869
  },
  {
    "Compound": "c1ccc(N2CCN(Cc3cnc(C4CCCCO4)nc3)CC2)cc1 (configuration not stated)",
    "cytotoxicity at 70.5 h (%)": 4.6
  },
  {
    "Compound": "N#CC1=C(N)Nn2c(nnc2-c2ccccc2Br)S1",
    "cytotoxicity at 70.5 h (%)": -19
  },
  {
    "Compound": "CCOc1nnc(CN2CCC(N(C)Cc3noc(C)n3)C2)s1 (configuration not stated)",
    "cytotoxicity at 70.5 h (%)": -8.7
  },
  {
    "Compound": "CCOCCN1CCN(Cc2nnc(C3CC3)o2)CC1CC (configuration not stated)",
    "cytotoxicity at 70.5 h (%)": 13.5
  },
  {
    "Compound": "Cc1cc(NCc2cc3n(n2)CCCN(C(=O)C2CCC2)C3)nc(N)n1",
    "cytotoxicity at 70.5 h (%)": -1.07
  },
  {
    "Compound": "COc1ccc(CCn2cnc(C#N)n2)cc1",
    "cytotoxicity at 70.5 h (%)": -12.6
  },
  {
    "Compound": "O=C(NCc1cncc2c1CCN(Cc1cccc(F)c1)C2)C1CC1",
    "cytotoxicity at 70.5 h (%)": -1.35
  },
  {
    "Compound": "Cc1nc2ccccc2n1Cc1cc(C(=O)N(C)C2CCOCC2)no1",
    "cytotoxicity at 70.5 h (%)": 12.4
  },
  {
    "Compound": "COCCN(C)C(=O)c1ccc(OC)cc1O",
    "cytotoxicity at 70.5 h (%)": -2.43
  }
]

====

Measurement notes: Human HepG2 cell viability assay in 384 well format
Type: toxicity, cell-based
Set-up: dose 125 nL, time 70.5 hour; concentration not given beside the values
Condition summary: HepG2 cells, read-out: Inhibition
A collection of compounds and their measured cytotoxicity at 70.5 h
Assay endpoint: cytotoxicity at 70.5 h (%)

[
  {
    "Compound": "CN1CCCC(c2ccnc(C(=O)NC3CC3)c2)C1 (configuration not stated)",
    "Assay endpoint": "cytotoxicity at 70.5 h",
    "Assay value": -3.68
  },
  {
    "Compound": "COc1ncccc1CNC(=O)c1cnc(C)cn1",
    "Assay endpoint": "cytotoxicity at 70.5 h",
    "Assay value": -3.16
  },
  {
    "Compound": "Cc1ccc(CN2CCN(c3ncccc3Cl)CC2CCO)cc1 (configuration not stated)",
    "Assay endpoint": "cytotoxicity at 70.5 h",
    "Assay value": -0.712
  },
  {
    "Compound": "O=C(NCCc1ccccc1)N1CCC(C2OCCO2)CC1",
    "Assay endpoint": "cytotoxicity at 70.5 h",
    "Assay value": -4.29
  },
  {
    "Compound": "O=C(O)c1nnn(Cc2ccc(F)cc2)c1-c1cccnc1",
    "Assay endpoint": "cytotoxicity at 70.5 h",
    "Assay value": -10.1
  },
  {
    "Compound": "Cc1nc2n(n1)CC(NCCc1cccs1)CC2 (configuration not stated)",
    "Assay endpoint": "cytotoxicity at 70.5 h",
    "Assay value": 0.958
  },
  {
    "Compound": "Fc1cccc(CN2CCC(c3cc4ncccc4cn3)CC2)c1F",
    "Assay endpoint": "cytotoxicity at 70.5 h",
    "Assay value": 4.71
  },
  {
    "Compound": "CC(C)(C)CN[C@@H]1CO[C@H](CNC(=O)C2CCCC2)[C@H]1O",
    "Assay endpoint": "cytotoxicity at 70.5 h",
    "Assay value": -14
  },
  {
    "Compound": "O=S1(=O)CCN(Cc2cccnc2)[C@H]2CCN(c3ncccn3)CC[C@H]21",
    "Assay endpoint": "cytotoxicity at 70.5 h",
    "Assay value": 19.6
  },
  {
    "Compound": "CN(CCOCC1CC1)C(=O)Cn1cccc(C(F)(F)F)c1=O",
    "Assay endpoint": "cytotoxicity at 70.5 h",
    "Assay value": -1.06
  },
  {
    "Compound": "CN1Cc2ccccc2CC2(CCN(c3ncccn3)CC2)C1=O",
    "Assay endpoint": "cytotoxicity at 70.5 h",
    "Assay value": -14.8
  },
  {
    "Compound": "Cn1nc(Cn2cccc2)c2c1CN(Cc1ccoc1)C2",
    "Assay endpoint": "cytotoxicity at 70.5 h",
    "Assay value": 21.4
  }
]

====

Measurement notes: Human HepG2 cell viability assay in 384 well format
Type: toxicity, cell-based
Parameters: dose 125 nL, time 70.5 hour; concentration not given beside the values
Condition summary: HepG2 cells, read-out: Inhibition
A collection of compounds and their measured cytotoxicity at 70.5 h

[
  {
    "Compound": "Cc1c(NC(C)C(C)C)cccc1C(=O)NCc1ccnn1C (stereo unspecified)",
    "cytotoxicity at 70.5 h [%]": 4.31
  },
  {
    "Compound": "CCS(=O)(=O)N1C[C@@H](OCc2ccccn2)[C@@H]2OCCC[C@@H]21",
    "cytotoxicity at 70.5 h [%]": -9.16
  },
  {
    "Compound": "CSCc1ccc(CNCCCN2CCOCC2)o1",
    "cytotoxicity at 70.5 h [%]": -12.3
  },
  {
    "Compound": "CN(CC1(O)CCCN(c2ccccn2)C1)C(=O)CCc1cccs1 (stereo unspecified)",
    "cytotoxicity at 70.5 h [%]": -7.41
  },
  {
    "Compound": "Cc1nc(CC(=O)N2CCc3nc(-c4cnccn4)nc(O)c3C2)cs1",
    "cytotoxicity at 70.5 h [%]": 12.3
  },
  {
    "Compound": "O=C(N1CCCC1)N1C[C@@H](OCc2cccnc2)[C@H]2OCCC[C@H]21",
    "cytotoxicity at 70.5 h [%]": 12.7
  },
  {
    "Compound": "COC(=O)c1cc2n(n1)CCCN(C(=O)Cc1c[nH]c3ccccc13)C2",
    "cytotoxicity at 70.5 h [%]": -13.9
  },
  {
    "Compound": "Cc1ccc(C(CNC(=O)Cc2nc3ncccn3n2)N(C)C)cc1 (stereo unspecified)",
    "cytotoxicity at 70.5 h [%]": -10.7
  },
  {
    "Compound": "CC[C@@H]1N(Cc2cccnc2)CCC[C@]12CCC(=O)N2C",
    "cytotoxicity at 70.5 h [%]": -12.1
  },
  {
    "Compound": "COc1cccc(CNC(C)c2ccc(-n3ccnc3)cc2)c1OC (stereo unspecified)",
    "cytotoxicity at 70.5 h [%]": -8.35
  },
  {
    "Compound": "COCCN(Cc1ccco1)Cc1nc(-c2ccccc2)no1",
    "cytotoxicity at 70.5 h [%]": 19.2
  },
  {
    "Compound": "O=C1N(c2cccc(F)c2)Cc2nc(=O)n(Cc3ccccc3Cl)n21",
    "cytotoxicity at 70.5 h [%]": -18.7
  },
  {
    "Compound": "O=C([C@@H]1Cc2[nH]cnc2CN1C(=O)NC1CCCCC1)N1CCCC1",
    "cytotoxicity at 70.5 h [%]": -7.01
  },
  {
    "Compound": "Cc1nc(CN2CCC3(CCN(c4cnn(C)c4)C3=O)C2)cs1 (stereo unspecified)",
    "cytotoxicity at 70.5 h [%]": -14.5
  },
  {
    "Compound": "COCCN1CCC(CN(Cc2ccncc2)C2CCCCC2)CC1",
    "cytotoxicity at 70.5 h [%]": -6.59
  },
  {
    "Compound": "O=C(C1CC1)N1CCc2c(ncnc2NCCc2nc3c(s2)CCC3)C1",
    "cytotoxicity at 70.5 h [%]": 13.5
  },
  {
    "Compound": "CCc1nc(CC(=O)NCC2(C(N)=O)CCOCC2)cs1",
    "cytotoxicity at 70.5 h [%]": -6.76
  },
  {
    "Compound": "COc1cc(C2C3=C(COC3=O)Nc3[nH]nc(C)c32)cc2c1OCO2 (stereo unspecified)",
    "cytotoxicity at 70.5 h [%]": 9.37
  },
  {
    "Compound": "O=C(CCc1ccc(-c2ccccc2)[nH]1)N1CCCC(n2ccnc2)C1 (stereo unspecified)",
    "cytotoxicity at 70.5 h [%]": -1.63
  },
  {
    "Compound": "COc1ccc(C)cc1C(C)NC(=O)NCCCn1cncn1 (stereo unspecified)",
    "cytotoxicity at 70.5 h [%]": -10.9
  },
  {
    "Compound": "Cc1cc(C(=O)N2CCc3nc(C4CCCN4)ncc3C2)cs1 (stereo unspecified)",
    "cytotoxicity at 70.5 h [%]": -4.19
  },
  {
    "Compound": "C[C@@H]1CN(C(=O)c2ccccc2F)C[C@]12CCN(CCN(C)C)C2=O",
    "cytotoxicity at 70.5 h [%]": -13.1
  },
  {
    "Compound": "Cn1ccnc1C(=O)N1CCC2(CCCN2CC2CC2)CC1",
    "cytotoxicity at 70.5 h [%]": -7.19
  },
  {
    "Compound": "CN1CCN(c2cccc(NC(=O)NCc3csc(N(C)C)n3)c2)C1=O",
    "cytotoxicity at 70.5 h [%]": 35.3
  },
  {
    "Compound": "Cc1noc([C@@]23CCO[C@@H]2CCN(Cc2scnc2C)C3)n1",
    "cytotoxicity at 70.5 h [%]": -13.1
  },
  {
    "Compound": "CN(C)S(=O)(=O)N1CCC2(COCc3cnc(-c4cccnc4)nc32)C1 (stereo unspecified)",
    "cytotoxicity at 70.5 h [%]": -9.11
  },
  {
    "Compound": "CCCn1nccc1S(=O)(=O)N1CCC2(CCCN(C(C)C)C2=O)C1 (stereo unspecified)",
    "cytotoxicity at 70.5 h [%]": 17.4
  },
  {
    "Compound": "COCCCNC(=O)N1CCN(C(=O)c2nsc3ccc(C)cc23)CC1",
    "cytotoxicity at 70.5 h [%]": 20.4
  },
  {
    "Compound": "Cc1nn(C)c(C)c1CN(C)CC1(O)CCCN(C)C1 (stereo unspecified)",
    "cytotoxicity at 70.5 h [%]": -19.1
  },
  {
    "Compound": "CC(O)(CNC(=O)c1cccnc1-n1cccn1)c1cccs1 (stereo unspecified)",
    "cytotoxicity at 70.5 h [%]": -9.1
  },
  {
    "Compound": "Cc1ccc(C2(C(=O)N3CCC(n4cc(C(C)O)nn4)CC3)CC2)cc1 (stereo unspecified)",
    "cytotoxicity at 70.5 h [%]": -7.08
  },
  {
    "Compound": "OCC1CCN(C[C@@H]2CN(C3Cc4ccccc4C3)C[C@@H]2CO)CC1",
    "cytotoxicity at 70.5 h [%]": -4.9
  },
  {
    "Compound": "O[C@@]1(Cn2cnc(Cl)c2Cl)CCCN2CCCC[C@@H]21",
    "cytotoxicity at 70.5 h [%]": -12.5
  },
  {
    "Compound": "COc1cc(C)nc(N2CCN(C(=O)CCc3ccco3)CC2)n1",
    "cytotoxicity at 70.5 h [%]": -2.64
  },
  {
    "Compound": "Cc1cnn(CC2CN(CC(=O)Nc3ccnn3C(C)C)CCO2)c1 (stereo unspecified)",
    "cytotoxicity at 70.5 h [%]": -6.91
  },
  {
    "Compound": "COCCCNC(=O)CN1CCOC(c2ccccc2)C1 (stereo unspecified)",
    "cytotoxicity at 70.5 h [%]": 15.8
  },
  {
    "Compound": "O=C(c1cnccn1)N1CCN(c2ccnc3ccsc23)CC1",
    "cytotoxicity at 70.5 h [%]": -13.2
  },
  {
    "Compound": "CCc1noc(C2CCCCN2C(=O)c2cc(C)n(C)n2)n1 (stereo unspecified)",
    "cytotoxicity at 70.5 h [%]": 16.6
  },
  {
    "Compound": "CCn1ccc(-c2cc(C(=O)O)n3ncc(Cl)c3n2)n1",
    "cytotoxicity at 70.5 h [%]": -10.2
  },
  {
    "Compound": "Cc1cc(C(C)(O)CNC(=O)c2ccc(Br)o2)c(C)o1 (stereo unspecified)",
    "cytotoxicity at 70.5 h [%]": -0.275
  },
  {
    "Compound": "Cc1ccccc1OCCN1CCCC(c2cc(C(N)=O)[nH]n2)C1 (stereo unspecified)",
    "cytotoxicity at 70.5 h [%]": -6.71
  },
  {
    "Compound": "Cc1ccc(OC2CCN(C(=O)Cc3c(C)[nH]c(=O)[nH]c3=O)CC2)cc1",
    "cytotoxicity at 70.5 h [%]": -10.2
  },
  {
    "Compound": "CN(C)c1ccc(C(=O)NCc2csc(Br)c2)cn1",
    "cytotoxicity at 70.5 h [%]": -11
  },
  {
    "Compound": "COC(=O)N1C[C@H]2CC[C@@H]1CN(Cc1ccncc1)C2",
    "cytotoxicity at 70.5 h [%]": -14.2
  },
  {
    "Compound": "CC(O)CN(C)c1cc(C(F)(F)F)nc(-c2cccnc2)n1 (stereo unspecified)",
    "cytotoxicity at 70.5 h [%]": -3.49
  },
  {
    "Compound": "Cc1cc(CN2CCC(c3nccn3C(C)C)CC2)ccc1F",
    "cytotoxicity at 70.5 h [%]": 15.8
  }
]
